Test system: Mycobacterium tuberculosis
Test: Antitubercular activity against isoniazid-resistant Mycobacterium tuberculosis H37Rv INH-R1 harboring katG Y155 mutant after 5 days
Format: functional, organism-based
recorded_endpoint: log10(IC90) (log10 of the value in µM)
Note the log scale: values are log10 of IC90 expressed in µM.

1. O=C(Cn1cnc([N+](=O)[O-])n1)N1CCN(Cc2ccc(Cl)c(Cl)c2)CC1 ... 1.15
2. O=C(CCn1cnc([N+](=O)[O-])n1)Nc1ccc(Oc2ccc(Cl)cc2)cc1 ... 1.72
3. O=C(CCn1cnc([N+](=O)[O-])n1)Nc1ccc(Oc2ccccc2)cc1 ... 1.85
4. O=C(CCn1cnc([N+](=O)[O-])n1)Nc1cccc(OCc2ccccc2)c1 ... 0.77
5. O=C(Cn1ccnc1[N+](=O)[O-])Nc1ccc(Oc2ccccc2)cc1 ... 2.15
6. O=C(Cn1cnc([N+](=O)[O-])n1)Nc1nc(-c2ccc(F)c(F)c2)cs1 ... 1.67
7. O=C(Cn1cnc([N+](=O)[O-])n1)Nc1ccc(Oc2ccccc2)cc1 ... 2.11
8. O=C(Cn1cnc([N+](=O)[O-])n1)N1CCN(C(c2ccccc2)c2ccc(Cl)cc2)CC1 (stereo not given) ... 1.91

I'd like to know its log10(IC90). The compound in question is `O=C(Cn1cnc([N+](=O)[O-])n1)Nc1ccc(Cc2ccccc2)cc1` 1.67

* * *

Tested on: Mycobacterium tuberculosis
Assay: Antitubercular activity against isoniazid-resistant Mycobacterium tuberculosis INH-R2 ATCC 35822 after 5 days
Assay type: functional, organism-based
Conditions: INH-R2 ATCC 35822, 120 h
# maps each entry to its MIC
Numbers only; they are read as µM.

Solved cases (4 shown):
1) O=C(Cn1cnc([N+](=O)[O-])n1)Nc1nc(-c2ccc(F)c(F)c2)cs1 ... 49
2) O=C(NCCCCn1cnc([N+](=O)[O-])n1)c1sc2ccccc2c1Cl ... 7.3
3) O=C(Cn1cnc([N+](=O)[O-])n1)Nc1ccc(Cc2ccccc2)cc1 ... 31
4) O=C(CCn1cnc([N+](=O)[O-])n1)Nc1ccc(Oc2ccc(Cl)cc2)cc1 ... 31

--- query ---
I'd like to know its MIC. The compound in question is `O=C(CCn1cnc([N+](=O)[O-])n1)Nc1cccc(-c2ccccc2)c1` 10

* * *

Test system: Mycobacterium tuberculosis
Experiment: Antitubercular activity against fluoroquinolone-resistant Mycobacterium tuberculosis H37Rv harboring gyrB D94N mutant after 5 days
Format: functional, organism-based
# maps each entry to its log10 MIC
Note the log scale: values are log10 of MIC expressed in µM.

1) O=C(Cn1cnc([N+](=O)[O-])n1)N1CCN(C(c2ccccc2)c2ccc(Cl)cc2)CC1 (centres undefined) ... 1.86
2) O=C(NCCCCn1cnc([N+](=O)[O-])n1)c1nc2ccccc2s1 ... 0.91
3) O=C(Cn1cnc([N+](=O)[O-])n1)Nc1ccc(N2CCCCC2)cc1 ... 1.70
4) O=C(Cn1cnc([N+](=O)[O-])n1)N1CCN(Cc2ccc(Cl)c(Cl)c2)CC1 ... 1.08
5) O=C(CCn1cnc([N+](=O)[O-])n1)Nc1ccc(Oc2ccc(Cl)cc2)cc1 ... 1.60
6) O=C(NCCCCn1cnc([N+](=O)[O-])n1)c1sc2ccccc2c1Cl ... 0.85
7) O=C(CCn1cnc([N+](=O)[O-])n1)Nc1ccc(Oc2ccccc2)cc1 ... 1.79
8) O=C(CCn1cnc([N+](=O)[O-])n1)Nc1cccc(OCc2ccccc2)c1 ... 0.78

I'd like to know its log10 MIC. The molecule in question is `O=C(CCn1cnc([N+](=O)[O-])n1)Nc1cccc(-c2ccccc2)c1` 1.11
